Overview of reported CMS %inh across a group of molecules:
Test system: CMS
Parameters: species or system AML cell lines (8); Primary HTS, single concentration about 10 uM, Cell Titer Glo viability; log10 luminescence, per cent inhibition relative to cycloheximide control
Setup Conditions: 72 h, relative to cycloheximide control, log10 luminescence; inhibitor
Numeric only. Scale: %

Please review the following examples before continuing.
INSERT INTO results (molecule, reported_property, value_units, result_number) VALUES
  ('COc1ccc(C2=C(c3cn(C)c4ccccc34)C(=O)NC2=O)cc1', 'CMS %inh', '%', -2.297),
  ('Cc1cccc(Nc2ncc(-c3ccccc3)o2)c1', 'CMS %inh', '%', 1.47),
  ('Nc1nonc1-c1nc2cnccc2n1C1CCCCC1', 'CMS %inh', '%', 13.87);

Ask: I am curious: what CMS %inh value has been reported for COc1ccc(S(=O)(=O)N2CCN(C(=O)c3ccc(-c4ccccc4)cc3)CC2C(=O)NO)cc1 (stereo not shown) ?
Reply: 90.96
